system: cMAC mRNA; experiment: cMAC mRNA knockdown in shDNA transduced Jurkat cells; format: cell-based; conditions: 3 days post infection (2 days post puromycin selection)
Parameter Average cMAC mRNA % Inhib.: see the listing below.
Lab book: enter the figure in %, no units written.

Examples with answers:
{"molecule": "cMAC BL8: shDNA construct in pLKO.1 lentiviral vector, target sequence gtcaggtgccacatgagaa (SEQ ID NO: 123) (nucleic acid) sense: CCGGGTCAGGTGCCACATGAGAATTCAAGAGATTCTCATGTGGCACCTGACTTTTT antisense: AATTAAAAAGTCAGGTGCCACATGAGAATCTCTTGAATTCTCATGTGGCACCTGAC", "Average cMAC mRNA % Inhib. (%)": 70.1}
{"molecule": "cMAC BL4: shDNA construct in pLKO.1 lentiviral vector, target sequence ggttatctgttgcccaaga (SEQ ID NO: 111) (nucleic acid) sense: CCGGGGTTATCTGTTGCCCAAGATTCAAGAGATCTTGGGCAACAGATAACCTTTTT antisense: AATTAAAAAGGTTATCTGTTGCCCAAGATCTCTTGAATCTTGGGCAACAGATAACC", "Average cMAC mRNA % Inhib. (%)": 56.2}
{"molecule": "cMAC MB4: shDNA construct in pLKO.1 lentiviral vector, target sequence ccttgggcuggcactcttatt (SEQ ID NO: 129) (nucleic acid) sense: CCGGCCTTGGGCUGGCACTCTTATTCAAGAGATAAGAGTGCCAGCCCAAGGTTTTT antisense: AATTAAAAACCTTGGGCTGGCACTCTTATCTCTTGAATAAGAGTGCCAGCCCAAGG", "Average cMAC mRNA % Inhib. (%)": 65.9}
{"molecule": "cMAC BL7: shDNA construct in pLKO.1 lentiviral vector, target sequence ccgggtttccctattccaa (SEQ ID NO: 120) (nucleic acid) sense: CCGGCCGGGTTTCCCTATTCCAATTCAAGAGATTGGAATAGGGAAACCCGGTTTTT antisense: AATTAAAAACCGGGTTTCCCTATTCCAATCTCTTGAATTGGAATAGGGAAACCCGG", "Average cMAC mRNA % Inhib. (%)": 66.4}

// moving on: another record for Average cMAC mRNA % Inhib.
Would you kindly share the measured Average cMAC mRNA % Inhib. for cMAC BL2: shDNA construct in pLKO.1 lentiviral vector, target sequence gcctttgttagatctatca (SEQ ID NO: 105) (nucleic acid) sense: CCGGGCCTTTGTTAGATCTATCATTCAAGAGATGATAGATCTAACAAAGGCTTTTT antisense: AATTAAAAAGCCTTTGTTAGATCTATCATCTCTTGAATGATAGATCTAACAAAGGC ?
72.6

These data points were gathered from patent US20090136506A1.
